test system: anti-FLAG M2 antibody (mouse); test: bead pull-down, competition; settings: 4% glycerol, 1 mM MgCl2, 1 mM DTT, 50 mM NaCl, 10 mM Tris-HCl pH 7.5, room temperature 30 min; EMSA on 4% native PAGE in 45 mM Tris-borate, 2 mM EDTA pH 8.3 at …
pIC50: −log10 of the molar value.

- Macromolecule Sequence: "TCGATTTCCTTAGTTGTCTTCCTTAGTGAG [ABA]"
  Tested Target: "anti-FLAG M2 antibody (mouse)"
  pIC50: 7.02
